assay: Cytotoxicity evaluation in GS4.1 cells (Cell Titer 96 AQueous One Solution); format: cell-based; settings: human, 72 hours
Below: a set of entries, each annotated with reported CC50.

Before answering, review these 2 worked examples.
CC(C)(CO)C(=O)SCCOP(=O)(NCc1ccccc1)OC[C@H]1O[C@@H](n2ccc(=O)[nH]c2=O)[C@](C)(O)[C@@H]1O (stereo partly drawn) [Example B229]    > 75 µM
CC(C)(CO)C(=O)SCCOP(=O)(NCc1ccc(C(F)(F)F)cc1)OC[C@H]1O[C@@H](n2ccc(N)nc2=O)[C@](C)(O)[C@@H]1O (stereo in doubt) [Example B399]    > 75 µM

QUERY: What value of CC50 has been recorded for this entry: CC(=O)O[C@@H]1[C@@H](COP(=O)(NCc2ccccc2)OCCSC(=O)C(C)(C)CO)O[C@@H](n2ccc(N)nc2=O)[C@]1(C)OC(C)=O (stereo in doubt) [Example B390]
RESULT: > 75 µM

====

test system: wild-type HBV (intracellular nucleocapsids); assay: Anti-HBV activity in HBV nucleocapsids (RI) via endogenous polymerase assay (EPA); format: cell-based; conditions: Hepatitis B virus, read-out: RI EC50 (μM)
measured.quantity: EC50

QUERY: What is its EC50 for wild-type HBV (intracellular nucleocapsids)? Entry: CC(C)N(C(C)C)P(=O)(OCCSC(=O)C(C)(C)CO)OC[C@@H]1CC[C@H](n2cnc3c(N)ncnc32)O1 (stereo partly shown)
RESULT: 1 to 10 µM

====

Below: a set of entries, each annotated with reported CC50 at 9 days.
Test: In vitro cytotoxicity assay in HepG2 cells (MTS)
Type: cell-based
Details: human, collagen plates
Method: A standard in vitro cytotoxicity assay was performed in HepG2 cells. Cells were exposed to drug for 9 days. […] Plates were incubated at 37° C., 5% CO2. • d) Cells were treated every-other-day with fresh growth media and fresh drug dilutions for a total of 8 days as described above. • e) On day 9, cell viability of HepG2 cells was determined by adding 20 μl of MTS CellTiter 96 Aqueous One Solution.

Nc1ncnc2c1ncn2CCOCP(=O)(O)O [PMEA]    > 100 µM

We now examine a further molecule.
QUERY: What value of CC50 at 9 days has been recorded for this entry: CC(C)(CO)C(=O)SCCOP(=O)(COCCn1cnc2c(N)ncnc21)NCc1ccccc1 (centres unmarked) [Example B261]
RESULT: 19.6 µM

====

target: endogenous HBV polymerase activity; experiment: HBV drug susceptibility assay (EPA read-out); assay type: cell-based; conditions: HBV Cell Assay (EPA Read-out), collagen plates; read-out: Antiviral Activity (EC50 in μM)
measured.quantity: EC50 (µM)
Only the number, expressed in µM, is required.

QUERY: What value of EC50 has been recorded for this entry: Cc1cn([C@@H]2C[C@@H](O)[C@H](CO)O2)c(=O)[nH]c1=O [LdT]
RESULT: 0.366

====

test system: HepG2 cells; test: In vitro cytotoxicity assay in HepG2 cells (MTS); assay type: cell-based; conditions: 9 days, collagen plates
measured.quantity: CC50

QUERY: What value of CC50 has been recorded for this entry: Cc1cn([C@@H]2C[C@@H](O)[C@H](CO)O2)c(=O)[nH]c1=O
RESULT: > 100 µM
